- target-desc: Retinoic acid receptor alpha (Homo sapiens) (UniProt P10276)
- Sequence (P10276 whole entry, looked up): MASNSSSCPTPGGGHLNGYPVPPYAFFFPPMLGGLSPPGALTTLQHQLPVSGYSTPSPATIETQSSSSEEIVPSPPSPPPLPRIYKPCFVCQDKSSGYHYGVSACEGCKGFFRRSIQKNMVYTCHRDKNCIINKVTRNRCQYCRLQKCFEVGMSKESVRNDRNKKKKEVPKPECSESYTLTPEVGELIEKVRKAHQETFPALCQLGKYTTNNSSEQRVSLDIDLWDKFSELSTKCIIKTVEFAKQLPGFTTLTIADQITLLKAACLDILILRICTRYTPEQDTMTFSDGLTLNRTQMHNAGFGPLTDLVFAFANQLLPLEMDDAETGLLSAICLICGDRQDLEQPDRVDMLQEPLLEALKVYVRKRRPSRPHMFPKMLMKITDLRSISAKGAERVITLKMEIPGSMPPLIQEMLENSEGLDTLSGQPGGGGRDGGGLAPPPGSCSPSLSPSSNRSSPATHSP
- assay-text: ATG_DR5_RAR_CIS: Attagene CIS-FACTORIAL HepG2 Assay for human Retinoic Acid Receptor Alpha (RARE), DR5 submotif (AID 2282934)
- experimental-setup: HepG2 Attagene cis-factorial RARE DR5 reporter, mRNA; actives raise or lower the signal
- Protocol: ATG_CIS is a cell-based, multiplexed-readout assay that uses HepG2, a human liver cell line, with measurements taken at 24 hours after chemical dosing in a 24-well plate.ATG_DR5_RAR_CIS is one of 52 assay component(s) measured or calculated from the ATG_CIS assay. […] This assay endpoint, ATG_DR5_CIS, was analyzed with bidirectional fitting relative to DMSO as the negative control and baseline of activity. […]
The source made the active and inactive calls. How the source made its calls: active means hit-call score of the fitted dose curve at least 0.9, where 1 is the maximum; inactive means score below 0.9.
Write down one outcome, taken from active, inactive

For CC(=O)Oc1ccccc1C(=O)O , which call appears in the assay record?
inactive

meta.source: PubChem BioAssay (EPA / NIEHS)
